Where do the numbers come from? From ChEMBL document CHEMBL1201862.

# System: OVCAR-8
# test method notes: NCI tumour cell line growth inhibition, 48 h
Active and inactive are the calls of the source. No stated cut-off is given here; in the data, active = GI50 up to about 1.1 µM and inactive = higher.
Write down the outcome that applies. Available outcomes: 1 (active), 0 (inactive)

What classification did COc1cc(OC)c(C#N)c(OC)c1C end up with in this test?
0

Any idea what this test logged for C=CCSc1nn(CC=C)cc2ncnc1-2 ?
0

Assay outcome for COc1ccc(C2Oc3cc(OC)c(O)cc3[C@@H]2C)cc1 (stereo partly drawn) : what was it?
0

Check the results log: what was the call for NC(Cc1cccnn1)C(=O)O (stereo not drawn) ?
0

Which outcome was assigned to COc1ccc([C@H]2CC(=O)C[C@H](c3ccc(OC)cc3OC)C23C(=O)c2ccccc2C3=O)c(OC)c1 in this test?
0

Each compound tested received a call. Report the one for COc1ccc(S(=O)(=O)N/N=C(\C)CN2C(=O)c3ccccc3C2=O)cc1 .
0

Please indicate how the test categorized C/C=C1\CC2C(=O)CCC2C2c3ccccc3OC12 (stereo not drawn) .
0

GET /call?item= Cc1ccc(/N=N/C(=N\c2ccc(Cl)cc2)c2ccc(N(CCC#N)CCC#N)cc2)cc1 returns the recorded outcome of this test.
0

Hi team, can someone confirm the assay call for Cc1ccc(C)n1-c1ccccc1C1SCCCS1 ?
0

Hello, I am checking results. What call was entered for COc1ccc(-n2/c(=N/C(=S)N(C)C)ss/c2=N\C(=S)N(C)C)cc1 ?
0

Name the outcome recorded for CN(C)CCOc1ccc(I)cc1Cc1ccccc1 in the assay.
0

How was Cc1ccc(OCC2OC(C#N)C(Oc3ccc(C)cc3)C2Oc2ccc(C)cc2)cc1 (stereo not drawn) classified in this test?
0

What outcome does the record of this test show for COc1cccc(-n2nnc3c(N)nc(N)nc32)c1 ?
0

Recorded test outcome, item C=C(C)C1CC=C(C)C(=O)C1 (stereo not drawn)
0

Tell me the recorded outcome of this test for COc1ccc(-c2cc(-c3cc(F)c(Cl)cc3Cl)on2)cc1OC .
0

Kindly provide the recorded test outcome for the following compound: N#Cc1nc(C(CO)N(Cc2ccccc2)C(=O)O)oc1N (stereo not drawn)
0

Hello, I am checking results. What call was entered for Cn1c(=O)n(CC2CS2)c2ccccc21 (stereo not drawn) ?
0

# lookup: test call for CC[C@H]1C=CCC[C@@]2(C[C@@H]3CC[C@@H]4[C@H](C(=O)OCCCCCCCCCCCCCCCC(=O)N(CCCNC(C)=O)C[C@H](CCNC(C)=O)OC(C)=O)[C@]5(CCC[C@@H](C)O5)NC(=[N+]34)N2)O1
1

// outcome(item) with item = CCOC(OC1=C(C#N)CCCC1)C(CC)[Se]c1ccccc1[N+](=O)[O-] (stereo not drawn)
0

Write down the call the test reported for this compound. Item: COc1ccc(C2C(Cl)C(=O)N2NC(=O)c2ccc(N)cc2)cc1 (stereo not drawn)
0

What classification did COc1ccccc1C1c2cc3c(cc2OC2(OC)COC(=O)C12)OCO3 (stereo not drawn) end up with in this test?
0

Please let me know the test result on file for CCCCCC(=O)OC[n+]1ccc2c(C)c3[nH]c4ccc(OC)cc4c3c(C)c2c1 .
1

Which outcome did this test record for the compound CCCCCCCCCOC(=S)NC ?
0

How did this test come out for CN(C)CCN1C(=O)c2ccccc2C1(O)c1ccc(Cl)cc1 (stereo not drawn) ?
0

Assay outcome for CC(C)=CC(=O)C/C(=N\NC(N)=S)C(=O)Nc1ccc(Cl)cc1 : what was it?
0

Query: recorded result category for O=c1[nH]n(Cc2ccccn2)c2ccc([N+](=O)[O-])cc12 in this test
0

Tell me the recorded outcome of this test for Clc1cc(-c2ccccc2)nc(Nc2nc3ccccc3[nH]2)n1 .
0

Name the outcome recorded for C/C(CC(=O)Nc1cccc([N+](=O)[O-])c1)=N\NC(=O)C[n+]1ccccc1 in the assay.
0

Look up the recorded call for COc1ccc(C2(CC(C)O)SCCCS2)cc1 (stereo not drawn) in this test.
0

Hi, sorry to bother you, what did the test record for CCP(=O)(OC)C1=CCN(C(=O)OCC[Si](C)(C)C)CC1 (stereo not drawn) ?
0

I would be grateful if you could indicate the recorded call for CSc1cc(N)ccc1/N=N/c1ccc(S(N)(=O)=O)cc1 .
0

Check the results log: what was the call for CC1=C(C(=O)NCc2ccccc2)C(c2ccccc2[N+](=O)[O-])C(C(=O)NCc2ccccc2)=C(C)N1 ?
0

Call for entry CC(C)(C)c1ccc2c(c1)S(=O)(=O)Nc1cccc(c1)NS(=O)(=O)c1cc(C(C)(C)C)ccc1OCCOCCO2 :
0

Query: recorded result category for COc1cc2nc(Nc3cccc(Br)c3)nc(Nc3cccc(Br)c3)c2cc1OC in this test
0

How was COc1ccc(/C=N/NC(=O)c2ccc(O)c(CN(C)C)c2)cc1 classified in this test?
0

Could you kindly confirm the outcome this assay logged for O=c1[nH]nc(-c2ccccc2)n1/N=C/c1c(O)ccc2ccccc12 ?
0

Dear colleague, could you share the recorded outcome for O=C(/C=C\c1ccc([N+](=O)[O-])cc1)c1ccccc(=O)c1O when you have a moment?
1

Answer briefly: the call reported for CC(C)S(=O)(=O)ON1C(=O)c2ccc(N(C)C)cc2C1=O in this assay.
0

Could you please tell me the result logged for CCn1cc(C(=O)O)c(=O)c2cc(F)c(N3CCN(CN4C(=O)/C(=N\c5ncc(Cc6cc(OC)c(OC)c(OC)c6)c(N)n5)c5cc(Cl)ccc54)CC3)cc21 in this assay?
0

# lookup: test call for CCOC(=O)CC(=O)ON(C)C(=O)Cc1ccccc1
0

Name the outcome recorded for O=P1(O)c2ccccc2Nc2cc(C(F)(F)F)ccc21 in the assay.
0

Returns: the outcome recorded for CCC1(O)CC(CCN(Cc2ccccc2)C(=O)OCc2ccccc2)C(OCc2ccccc2)C1O (stereo not drawn) in this assay.
0

So what was the verdict on CS(=O)(=O)C1S(=O)(=O)OCCOS1(=O)=O in this test?
0
